- Assay system: UniProt:P21554
- Sequence (P21554 whole entry): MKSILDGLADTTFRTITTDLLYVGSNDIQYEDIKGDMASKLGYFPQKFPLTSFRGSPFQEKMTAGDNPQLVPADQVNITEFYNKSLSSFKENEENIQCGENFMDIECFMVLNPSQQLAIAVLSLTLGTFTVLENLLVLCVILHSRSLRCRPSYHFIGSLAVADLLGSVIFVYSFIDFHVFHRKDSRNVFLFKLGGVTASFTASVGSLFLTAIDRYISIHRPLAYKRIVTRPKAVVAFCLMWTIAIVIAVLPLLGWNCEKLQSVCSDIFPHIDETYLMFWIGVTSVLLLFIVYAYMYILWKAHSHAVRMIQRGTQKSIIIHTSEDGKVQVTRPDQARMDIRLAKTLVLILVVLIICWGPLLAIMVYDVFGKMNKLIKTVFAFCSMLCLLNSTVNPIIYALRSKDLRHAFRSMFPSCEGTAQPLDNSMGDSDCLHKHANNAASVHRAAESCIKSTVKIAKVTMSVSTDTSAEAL
- Format: functional, cell-based
Property label: AC50

Query: Quick one: AC50 of "C[C@@H]1O[C@@H](O[C@@H]2C=C3CC[C@@H]4[C@H](CC[C@]5(C)[C@@H](c6ccc(=O)oc6)CC[C@]45O)[C@@]3(C)CC2)[C@H](O)[C@H](O)[C@H]1O" ?
Response: > 30 µM

Query: And CCC(C(=O)O)c1ccc(N2Cc3ccccc3C2=O)cc1 (stereo not drawn) ?
Response: > 30 µM

Query: And "CC(=O)OCC(=O)[C@@]12N=C(C)O[C@@H]1C[C@H]1[C@@H]3CCC4=CC(=O)C=C[C@]4(C)[C@H]3[C@@H](O)C[C@@]12C" ?
Response: > 30 µM

Go through the items and report each one's AC50.
1. CC(=O)O[C@H]1C[C@@H]2CC[C@@H]3[C@H](CC[C@@]4(C)[C@H]3C[C@H]([N+]3(C)CCCCC3)[C@@H]4OC(C)=O)[C@@]2(C)C[C@@H]1N1CCCCC1
2. CN1C(=O)OC(C)(C)C1=O

Response:
1. > 30 µM
2. > 30 µM

Go through the items and report each one's AC50.
1. CN(C)CC/C=C1\c2ccccc2CSc2ccccc21 [DOTHIEPIN]
2. CCOC(=O)[C@H](CCc1ccccc1)N[C@@H](C)C(=O)N1[C@H](C(=O)O)C[C@@H]2CCC[C@@H]21
3. CC(C)C(=O)c1c(C(C)C)nn2ccccc12

Response:
1: > 30 µM; 2: > 30 µM; 3: > 30 µM

----------
The following are reported AC50 results, target or system Sodium-dependent noradrenaline transporter (Homo sapiens, UniProt P23975). Also: assay procedure not described here.
Numbers only, in µM.

Known results for compounds:
Query: Quick one: AC50 of CC(C)(C)NCC(O)COc1cccc2c1SCCC2 (centres undefined) ?
Response: 29.6

Query: And "CO[C@]12C[C@@H](COC(=O)c3cncc(Br)c3)CN(C)[C@@H]1Cc1cn(C)c3cccc2c13" ?
Response: 11.1

Query: And O=C(Cc1ccc(-c2ccccc2)cc1)Nc1ccccn1 [DIFENPIRAMIDE] ?
Response: 2.16

Moving on to the next compound.
Query: Quick one: AC50 of "CN(C)S(=O)(=O)c1ccc2c(c1)N(CCCN1CCC(CCO)CC1)c1ccccc1S2" ?
Response: 12

----------
Answer each item with its documented AC50.
- Assay system: Muscarinic acetylcholine receptor M2 (Homo sapiens, UniProt P08172); also: assay procedure not described here
- Sequence (P08172 whole entry): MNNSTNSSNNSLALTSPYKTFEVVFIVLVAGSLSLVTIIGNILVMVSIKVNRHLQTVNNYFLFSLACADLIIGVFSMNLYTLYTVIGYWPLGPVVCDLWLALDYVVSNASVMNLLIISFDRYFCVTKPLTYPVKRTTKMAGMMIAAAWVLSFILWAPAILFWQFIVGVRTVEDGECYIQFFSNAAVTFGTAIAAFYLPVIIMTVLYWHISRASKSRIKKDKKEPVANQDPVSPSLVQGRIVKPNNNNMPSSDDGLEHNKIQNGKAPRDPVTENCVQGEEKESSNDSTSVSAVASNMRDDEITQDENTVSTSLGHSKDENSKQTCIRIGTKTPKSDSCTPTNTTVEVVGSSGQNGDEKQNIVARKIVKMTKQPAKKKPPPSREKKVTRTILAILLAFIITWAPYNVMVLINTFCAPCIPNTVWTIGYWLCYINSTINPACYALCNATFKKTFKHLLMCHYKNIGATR
- Type: functional, cell-based

Query: Quick one: AC50 of C[C@](N)(Cc1ccc(O)c(O)c1)C(=O)O [METHYLDOPA] ?
Response: > 10 µM

Go through the items and report each one's AC50.
1. CC(C)OC(=O)CCC/C=C\C[C@@H]1[C@@H](CC[C@@H](O)CCc2ccccc2)[C@H](O)C[C@@H]1O [LATANOPROST]
2. C[C@@H](O)[C@H]1C(=O)N2C(C(=O)O)=C(S[C@@H]3CN[C@H](C(=O)N(C)C)C3)[C@H](C)[C@H]12 [MEROPENEM]
3. CN(C)CCc1c[nH]c2ccc(C[C@H]3COC(=O)N3)cc12 [ZOLMITRIPTAN]
4. CNC(=O)c1ccccc1Sc1ccc2c(/C=C/c3ccccn3)n[nH]c2c1 [AXITINIB]
5. CC(C)C(=O)c1c(C(C)C)nn2ccccc12 [IBUDILAST]
6. C[C@]12CCC(=O)C=C1CC[C@@H]1[C@@H]2[C@@H](O)C[C@@]2(C)[C@H]1CC[C@]2(O)C(=O)CO [HYDROCORTISONE]
7. CC=CC(=O)N(CC)c1ccccc1C
8. CCC(C(=O)O)c1ccc(N2Cc3ccccc3C2=O)cc1 (centres undefined) [INDOBUFEN]

Response:
> 30 µM
> 300 µM
> 30 µM
4.2 µM
> 30 µM
> 10 µM
> 10 µM
> 30 µM

----------
- Assay system: 5-hydroxytryptamine receptor 2B (Homo sapiens); also: assay procedure not described here
- Sequence (P41595 whole entry): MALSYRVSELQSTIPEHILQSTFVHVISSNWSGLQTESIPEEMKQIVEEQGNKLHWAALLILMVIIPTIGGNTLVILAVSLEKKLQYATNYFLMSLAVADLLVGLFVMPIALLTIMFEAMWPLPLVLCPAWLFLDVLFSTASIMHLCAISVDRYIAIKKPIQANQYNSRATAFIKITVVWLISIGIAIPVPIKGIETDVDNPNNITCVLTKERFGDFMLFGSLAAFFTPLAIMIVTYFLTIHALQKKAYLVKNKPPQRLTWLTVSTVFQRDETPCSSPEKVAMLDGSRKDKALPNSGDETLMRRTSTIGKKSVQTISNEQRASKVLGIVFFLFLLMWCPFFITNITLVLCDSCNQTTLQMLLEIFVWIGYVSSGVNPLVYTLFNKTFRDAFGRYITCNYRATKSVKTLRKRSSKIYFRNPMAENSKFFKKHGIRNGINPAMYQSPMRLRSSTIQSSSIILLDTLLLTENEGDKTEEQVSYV
- Type: functional, cell-based
Answer each item with its documented AC50.

Known results for compounds:
Query: Quick one: AC50 of CN1C(=O)OC(C)(C)C1=O [TRIMETHADIONE] ?
Response: > 10 µM

Query: And CN1C(=O)CCS(=O)(=O)C1c1ccc(Cl)cc1 (stereo not given) [CHLORMEZANONE] ?
Response: > 10 µM

Query: And "CC(C)(C)C(=O)Oc1ccc(S(=O)(=O)Nc2ccccc2C(=O)NCC(=O)O)cc1" ?
Response: > 30 µM

Query: And COc1ccc2c3c1O[C@H]1C(=O)CC[C@@]4(O)[C@@H](C2)N(C)CC[C@]314 [OXYCODONE] ?
Response: > 30 µM

Query: And CCc1c(Cl)c(O)c(Cl)c(O)c1C(=O)O[C@H]1[C@H](O)[C@H](OC)[C@H](OC/C2=C\C=C\C[C@H](O)/C(C)=C/[C@H](CC)[C@@H](O[C@@H]3OC(C)(C)[C@@H](OC(=O)C(C)C)[C@H](O)[C@@H]3O)/C(C)=C/C(C)=C/C[C@@H]([C@@H](C)O)OC2=O)O[C@@H]1C [FIDAXOMICIN] ?
Response: > 30 µM

Query: And C[C@H](N)[C@H](O)c1cccc(O)c1 [METARAMINOL] ?
Response: 7.4 µM

Go through the items and report each one's AC50.
1. Cc1nnc2n1-c1ccc(Cl)cc1C(c1ccccc1Cl)=NC2 [TRIAZOLAM]
2. Nc1nc(Cl)nc2c1ncn2[C@H]1C[C@H](O)[C@@H](CO)O1 [CLADRIBINE]
3. CCCC1O[C@@H]2C[C@H]3[C@@H]4CCC5=CC(=O)C=C[C@]5(C)[C@H]4[C@@H](O)C[C@]3(C)[C@]2(C(=O)CO)O1 (stereo not given in full) [BUDESONIDE]
4. CC(=O)NCCCS(=O)(=O)O [ACAMPROSATE]
5. CC(C[N+](C)(C)C)OC(N)=O (stereo not given) [BETHANECHOL]
6. CO/N=C(\C(=O)N[C@@H]1C(=O)N2C(C(=O)O)=C(CSc3nnnn3C)CS[C@H]12)c1csc(N)n1 [CEFMENOXIME]

Response:
1: > 10 µM; 2: > 30 µM; 3: > 10 µM; 4: > 30 µM; 5: > 10 µM; 6: > 30 µM

Go through the items and report each one's AC50.
1. CCOC(=O)[N-]c1cn(N2CCOCC2)n[o+]1 [MOLSIDOMINE]
2. COc1cccc(C2(O)CCCCC2CN(C)C)c1 (stereo not given) [TRAMADOL]
3. CC(C)C(=O)c1c(C(C)C)nn2ccccc12 [IBUDILAST]

Response:
1: > 30 µM; 2: > 10 µM; 3: > 30 µM

----------
Answer each item with its documented AC50.
- Assay system: Alpha-2C adrenergic receptor (Homo sapiens); also: assay procedure not described here
- Sequence (P18825 whole entry): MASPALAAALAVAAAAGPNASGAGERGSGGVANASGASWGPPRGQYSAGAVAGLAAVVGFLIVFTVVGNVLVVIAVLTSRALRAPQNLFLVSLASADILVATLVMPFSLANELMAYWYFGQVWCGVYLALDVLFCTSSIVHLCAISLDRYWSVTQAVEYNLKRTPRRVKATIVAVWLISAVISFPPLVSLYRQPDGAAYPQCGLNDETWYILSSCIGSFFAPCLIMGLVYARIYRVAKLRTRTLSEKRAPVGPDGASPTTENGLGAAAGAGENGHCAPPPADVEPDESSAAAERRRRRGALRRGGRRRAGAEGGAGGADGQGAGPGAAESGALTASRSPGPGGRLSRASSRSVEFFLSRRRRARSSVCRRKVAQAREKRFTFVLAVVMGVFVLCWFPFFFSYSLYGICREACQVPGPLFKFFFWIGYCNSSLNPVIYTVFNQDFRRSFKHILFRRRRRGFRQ
- Assay type: functional

Known results for compounds:
Query: Quick one: AC50 of CC(=O)Nc1ccc(O)cc1 [ACETAMINOPHEN] ?
Response: > 30 µM

Query: And COc1ccc(CCN(C)CCCC(C#N)(c2cc(OC)c(OC)c(OC)c2)C(C)C)cc1OC (stereo not drawn) [GALLOPAMIL] ?
Response: 7.6 µM

Query: And CC[C@@H]1C(=O)OC[C@@H]1Cc1cncn1C [PILOCARPINE] ?
Response: > 10 µM

Query: And C[C@H]1COc2c(C3(N)CC3)c(F)cc3c(=O)c(C(=O)O)cn1c23 [PAZUFLOXACIN] ?
Response: > 10 µM

Query: And CCCCc1ncc(/C=C(\Cc2cccs2)C(=O)O)n1Cc1ccc(C(=O)O)cc1 [EPROSARTAN] ?
Response: > 10 µM

Go through the items and report each one's AC50.
1. C[C@]1(O)CC[C@H]2[C@@H]3CCC4=CC(=O)CC[C@]4(C)[C@@]3(F)[C@@H](O)C[C@@]21C [FLUOXYMESTERONE]
2. Cc1cc(O)c(C(=O)N[C@@H](C(=O)N[C@@H]2C(=O)N3C(C(=O)O)=C(CSc4nnnn4C)CS[C@H]23)c2ccc(O)cc2)cn1 [CEFPIRAMIDE]
3. O=C(NCCNCC(O)COc1ccc(O)cc1)N1CCOCC1 (stereo not drawn) [XAMOTEROL]

Response:
1: > 30 µM; 2: > 30 µM; 3: > 30 µM

----------
- Assay system: cGMP-inhibited 3',5'-cyclic phosphodiesterase 3A (Homo sapiens, UniProt Q14432); also: assay procedure not described here
- Sequence (Q14432 whole entry): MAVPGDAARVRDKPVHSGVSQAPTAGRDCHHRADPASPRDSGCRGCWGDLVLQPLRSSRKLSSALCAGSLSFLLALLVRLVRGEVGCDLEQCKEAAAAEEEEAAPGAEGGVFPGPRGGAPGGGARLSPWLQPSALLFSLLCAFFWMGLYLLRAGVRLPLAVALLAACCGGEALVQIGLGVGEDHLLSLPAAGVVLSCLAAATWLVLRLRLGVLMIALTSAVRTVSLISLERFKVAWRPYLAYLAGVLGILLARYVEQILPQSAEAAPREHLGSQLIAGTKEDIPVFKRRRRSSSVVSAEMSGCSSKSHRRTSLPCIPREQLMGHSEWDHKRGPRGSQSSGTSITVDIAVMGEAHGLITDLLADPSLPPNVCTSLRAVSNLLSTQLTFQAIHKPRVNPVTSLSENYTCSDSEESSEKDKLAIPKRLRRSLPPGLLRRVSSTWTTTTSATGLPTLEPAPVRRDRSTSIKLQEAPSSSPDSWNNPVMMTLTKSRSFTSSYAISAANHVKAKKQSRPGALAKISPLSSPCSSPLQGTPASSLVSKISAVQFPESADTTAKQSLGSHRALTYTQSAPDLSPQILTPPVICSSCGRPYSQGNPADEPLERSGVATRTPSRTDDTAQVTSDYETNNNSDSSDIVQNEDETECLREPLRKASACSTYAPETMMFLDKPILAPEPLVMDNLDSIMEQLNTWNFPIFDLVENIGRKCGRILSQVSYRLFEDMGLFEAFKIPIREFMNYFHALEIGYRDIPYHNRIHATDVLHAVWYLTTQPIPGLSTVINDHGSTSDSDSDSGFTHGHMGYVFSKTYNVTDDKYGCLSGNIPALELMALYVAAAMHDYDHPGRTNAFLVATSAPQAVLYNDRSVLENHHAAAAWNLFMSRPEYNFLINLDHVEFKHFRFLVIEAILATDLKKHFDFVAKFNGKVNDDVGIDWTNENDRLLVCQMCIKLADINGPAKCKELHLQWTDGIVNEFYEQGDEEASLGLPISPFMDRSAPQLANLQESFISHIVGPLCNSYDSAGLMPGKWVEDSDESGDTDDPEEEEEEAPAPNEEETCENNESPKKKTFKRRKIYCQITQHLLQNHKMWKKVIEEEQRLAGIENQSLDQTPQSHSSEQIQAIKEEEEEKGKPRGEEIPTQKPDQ
- Format: functional
Answer each item with its documented AC50.

Query: Quick one: AC50 of "CCc1c(Cl)c(O)c(Cl)c(O)c1C(=O)O[C@H]1[C@H](O)[C@H](OC)[C@H](OC/C2=C\C=C\C[C@H](O)/C(C)=C/[C@H](CC)[C@@H](O[C@@H]3OC(C)(C)[C@@H](OC(=O)C(C)C)[C@H](O)[C@@H]3O)/C(C)=C/C(C)=C/C[C@@H]([C@@H](C)O)OC2=O)O[C@@H]1C" ?
Response: > 30 µM

Go through the items and report each one's AC50.
1. C1CCC(C(CC2CCCCN2)C2CCCCC2)CC1 (stereo not given)
2. Cc1cn([C@H]2C=C[C@@H](CO)O2)c(=O)[nH]c1=O
3. COc1cccc(C2(O)CCCCC2CN(C)C)c1 (stereo not given)
4. COc1ccc2c3c1O[C@H]1[C@@H](O)C=C[C@H]4[C@@H](C2)N(C)CC[C@@]341

Response:
> 30 µM
> 30 µM
> 30 µM
3 µM
